System: umbrella sedge (Cyperus difformis)
Assay: Test B flooded paddy test
Format: in vivo
Settings: Flood, 31 g ai/ha; scale 0 to 100 (0 no effect, 100 complete control)
From the text: Plant species in the flooded paddy test consisted of rice (Oryza sativa), umbrella sedge (Cyperus difformis), ducksalad (Heteranthera limosa) and barnyardgrass (Echinochloa crus-galli) grown to the 2-leaf stage for testing. […] Treated plants and controls were maintained in a greenhouse for 13 to 15 days, after which time all treated plants were visually evaluated and compared to controls. […]
TEST READOUT: Sedge, Umbrella plant response rating

{"COMPOUND": "O=C(C1=C(O)C2CCC(C2)C1=O)c1cnc(-c2cc(F)cc(F)c2)n(-c2ccccc2)c1=O (stereo not drawn) [Compound 246]", "TESTED ON": "umbrella sedge (Cyperus difformis)", "TEST READOUT": "Sedge, Umbrella plant response rating", "VALUE": 0}
{"COMPOUND": "Cc1cccc(-c2ncc(C(=O)C3=C(O)CCCC3=O)c(=O)n2-c2ccc(F)cc2C)c1 [Compound 192]", "TESTED ON": "umbrella sedge (Cyperus difformis)", "TEST READOUT": "Sedge, Umbrella plant response rating", "VALUE": 0}
{"COMPOUND": "COCCCn1c(-c2cccc(Cl)c2)ncc(C(=O)C2=C(O)CCCC2=O)c1=O [Compound 143]", "TESTED ON": "umbrella sedge (Cyperus difformis)", "TEST READOUT": "Sedge, Umbrella plant response rating", "VALUE": 0}

Problem: Recall the recorded Sedge, Umbrella plant response rating for O=C1CCCC(O)=C1C(=O)c1cnc(-c2ccsc2)n(C2CCCCC2)c1=O [Compound 99] with umbrella sedge (Cyperus difformis) and state it.
Solution: 50

Problem: Recall the recorded Sedge, Umbrella plant response rating for O=C(C1=C(O)C2CCC(C2)C1=O)c1cnc(-c2ccccc2)n(C2CCOCC2)c1=O (stereo not drawn) [Compound 249] with umbrella sedge (Cyperus difformis) and state it.
Solution: 0

====

test system: morningglory (Ipomoea spp.); assay: Test A pre-/postemergence plant response; format: in vivo; settings: Postemergence, 125 g ai/ha; 0 to 100 scale where 0 is no effect and 100 is complete control
The entries below are paired with their reported Plant response rating, Morningglory.
Simply state the number, no unit and no words.

For orientation, consider the following solved cases.
{"COMPOUND": "CCCn1c(-c2ccco2)ncc(C(=O)C2=C(O)C3CCC(C3)C2=O)c1=O (stereo not shown)", "TEST READOUT": "Plant response rating, Morningglory", "VALUE": 70}
{"COMPOUND": "CCCn1c(-c2ccsc2)ncc(C(=O)C2=C(O)CCCC2=O)c1=O", "TEST READOUT": "Plant response rating, Morningglory", "VALUE": 100}
{"COMPOUND": "O=C1CCCC(O)=C1C(=O)c1cnc(-c2ccccc2)n(C2CCCCCCC2)c1=O", "TEST READOUT": "Plant response rating, Morningglory", "VALUE": 100}

Problem: Using the record for Cc1cc(-n2c(-c3cccc(Br)c3)ncc(C(=O)C3=C(O)CCCC3=O)c2=O)ccc1F , report its Plant response rating, Morningglory.
Solution: 90

Problem: Using the record for COCCn1c(-c2cccc(Br)c2)ncc(C(=O)C2=C(O)CCCC2=O)c1=O , report its Plant response rating, Morningglory.
Solution: 100

Problem: Using the record for CCCn1c(-c2ccn(C)n2)ncc(C(=O)C2=C(O)CCCC2=O)c1=O , report its Plant response rating, Morningglory.
Solution: 70

Problem: Using the record for O=C1CCCC(O)=C1C(=O)c1cnc(-c2ccc(F)c(F)c2)n(C2CCCCC2)c1=O , report its Plant response rating, Morningglory.
Solution: 100

Problem: Using the record for CCCn1c(-c2ccc(OC)cc2)ncc(C(=O)C2=C(O)CCCC2=O)c1=O , report its Plant response rating, Morningglory.
Solution: 90

Problem: Using the record for O=C1CCCC(O)=C1C(=O)c1cnc(-c2ccccc2)n(CCC(F)(F)F)c1=O , report its Plant response rating, Morningglory.
Solution: 40

Problem: Using the record for CCCCn1c(-c2ccccc2)ncc(C(=O)C2=C(O)C3CCC(C3)C2=O)c1=O (stereo not shown) , report its Plant response rating, Morningglory.
Solution: 100

====

system: pigweed (Amaranthus retroflexus); test: Test A pre-/postemergence plant response; type: in vivo; details: Preemergence, 125 g ai/ha; 0 to 100 scale, 0 = no effect, 100 = complete control
Binarize Plant response rating, Pigweed at 50; below is TRUE, at or above is FALSE.

Would you please look over these solved cases?
{"COMPOUND": "CC(C)c1ncc(C(=O)C2=C(O)CCCC2=O)c(=O)n1-c1ccccc1", "LABEL": "FALSE"}
{"COMPOUND": "COCCOCCn1c(-c2ccccc2)ncc(C(=O)C2=C(O)CCCC2=O)c1=O", "LABEL": "FALSE"}
{"COMPOUND": "CCCn1c(-c2ccn(C)n2)ncc(C(=O)C2=C(O)CCCC2=O)c1=O", "LABEL": "TRUE"}
{"COMPOUND": "CCCCn1c(-c2ccccc2)ncc(C(=O)C2=C(O)C3CCC(C3)C2=O)c1=O (centres unmarked)", "LABEL": "TRUE"}
{"COMPOUND": "Cc1cc(F)ccc1-n1c(-c2cccc(Cl)c2)ncc(C(=O)C2=C(O)CCCC2=O)c1=O", "LABEL": "TRUE"}

Problem: Plant response rating, Pigweed under 50? Item: COCCn1c(-c2cccs2)ncc(C(=O)C2=C(O)CCCC2=O)c1=O
Solution: FALSE

Problem: Plant response rating, Pigweed under 50? Item: COCCn1c(-c2ccn(C)n2)ncc(C(=O)C2=C(O)CCCC2=O)c1=O
Solution: FALSE

Problem: Plant response rating, Pigweed under 50? Item: Cc1cc(Cl)ccc1-n1c(-c2ccccc2)ncc(C(=O)C2=C(O)CCCC2=O)c1=O
Solution: FALSE

Problem: Plant response rating, Pigweed under 50? Item: CCCn1c(-c2cccc(C)c2)ncc(C(=O)C2=C(O)CCCC2=O)c1=O
Solution: TRUE

Problem: Plant response rating, Pigweed under 50? Item: Cc1ccc(F)c(-n2c(-c3ccccc3)ncc(C(=O)C3=C(O)CCCC3=O)c2=O)c1
Solution: FALSE

Problem: Plant response rating, Pigweed under 50? Item: Cc1cccc(-n2c(-c3ccccc3)ncc(C(=O)C3=C(O)CCCC3=O)c2=O)c1F
Solution: FALSE

Problem: Plant response rating, Pigweed under 50? Item: COc1cccc(-n2c(-c3ccccc3)ncc(C(=O)C3=C(O)CCCC3=O)c2=O)c1
Solution: FALSE

Problem: Plant response rating, Pigweed under 50? Item: CCn1c(-c2ccccc2)ncc(C(=O)C2=C(O)CCCC2=O)c1=O
Solution: FALSE

Problem: Plant response rating, Pigweed under 50? Item: O=C1CCCC(O)=C1C(=O)c1cnc(C2CCCC2)n(-c2ccccc2)c1=O
Solution: FALSE

Problem: Plant response rating, Pigweed under 50? Item: Cc1cc(-n2c(-c3cccc(Br)c3)ncc(C(=O)C3=C(O)CCCC3=O)c2=O)ccc1F
Solution: TRUE

Problem: Plant response rating, Pigweed under 50? Item: CCn1c(-c2cc(F)cc(F)c2)ncc(C(=O)C2=C(O)CCCC2=O)c1=O
Solution: FALSE

====

Test system: umbrella sedge (Cyperus difformis)
Assay: Test B flooded paddy test
Format: in vivo
Settings: Flood, 31 g ai/ha; scale 0 to 100 (0 no effect, 100 complete control)
From the text: Plant species in the flooded paddy test consisted of rice (Oryza sativa), umbrella sedge (Cyperus difformis), ducksalad (Heteranthera limosa) and barnyardgrass (Echinochloa crus-galli) grown to the 2-leaf stage for testing. […] Treated plants and controls were maintained in a greenhouse for 13 to 15 days, after which time all treated plants were visually evaluated and compared to controls. […]
The entries below are paired with their reported Sedge, Umbrella plant response rating.
Simply state the number, no unit and no words.

Problem: Using the record for CCCn1c(-c2cccc(F)c2)ncc(C(=O)C2=C(O)CCCC2=O)c1=O , report its Sedge, Umbrella plant response rating.
Solution: 0

Problem: Using the record for Cc1ccc(Cl)cc1-n1c(-c2cccc(Cl)c2)ncc(C(=O)C2=C(O)CCCC2=O)c1=O , report its Sedge, Umbrella plant response rating.
Solution: 80

Problem: Using the record for O=C1CCCC(O)=C1C(=O)c1cnc(-c2ccc(F)c(F)c2)n(C2CCCCC2)c1=O , report its Sedge, Umbrella plant response rating.
Solution: 20

====

The entries below are paired with their reported Plant response rating, Pigweed.
test system: pigweed (Amaranthus retroflexus); assay: Test A pre-/postemergence plant response; format: in vivo; details: Preemergence, 125 g ai/ha; 0 to 100 scale, 0 = no effect, 100 = complete control

{"COMPOUND": "O=C1CCCC(O)=C1C(=O)c1cnc(-c2ccc(Cl)cc2)n(-c2ccccc2)c1=O [Compound 25]", "TESTED ON": "pigweed (Amaranthus retroflexus)", "TEST READOUT": "Plant response rating, Pigweed", "VALUE": 50}

Problem: Using the record for Cc1c(F)cccc1-n1c(-c2ccccc2)ncc(C(=O)C2=C(O)C3CCC(C3)C2=O)c1=O (stereo not shown) [Compound 234] , report its Plant response rating, Pigweed.
Solution: 50

Recorded values, source patent US8952024B2.
